- Protocol notes: soluble on expression in E. coli; label from the status in PepcDB or PDB records
Readout label: soluble on expression in E. coli

MGSDKIHHHHHHMIVKDYRREFEALAKAYEKAGGDVSKFLDRRIASIIISGDKVIGLNGVEGVELTPYRIENGVQVDMRIKEGVVVEYPVHVCTGYLEKKGLQRVVFNIRLEKNAKAIFVAHCVFPWTEDFTHDALMNVELEEGAWMEYHDEHTHSETGSINLITRSIARVGERAVYRNTFTLVKTRIGTLRVFMDASLEKDAVGELYTKVKAVEDDDVEVKEILRLNGMGARGLAKTNAVAIDRAKVSVVNEVYGNAPHTRGHVECLEIAKGDGVDVRALPVLVVKNDSSELTHEASIGRVNAKQLETLMAKGLTEEEATEMIIKGILT; not soluble
MVFYLIGLGLGDVEDITVKGLNIVKNCARVHLEAYTSILCYGLDKTNLEKFYGREIIEADRTVVEQESDAILNGADKEDVALLVVGDPFGATTHADLVLRAKQQNIPVKVIHNASIMNAVGCCGLQLYNFGETVSIVMWTDEWQPESYYDKIALNRKRGMHTLCLLDIKTKEQTVENMMRGRKIFEPARYQKCSEAARQLLTIYERRKAKGEECAYDENTMVVGLARVGWDNQKIVYASMKDMSEMEMGEPLHSLIIPGETHPLEVDMLETFRP; not soluble
